- Tested on: Liver microsomes
- experiment: Antioxidant activity in Wistar rat liver microsomes assessed as inhibition of hydroxyl radical-induced lipid peroxidation by TBARS assay
- Format: functional, Microsome

[
  {
    "line-notation": "C[C@@H]1O[C@@H](Oc2cc(O)c3c(=O)c(O[C@@H]4O[C@@H](C)[C@H](O)[C@@H](O)[C@H]4O)c(-c4ccc(O)cc4)oc3c2)[C@H](O)[C@H](O)[C@H]1O",
    "IC50": "85 µM"
  },
  {
    "line-notation": "O=c1c(O)c(-c2ccc(O)c(O)c2)oc2cc(O)cc(O)c12",
    "IC50": "7.5 µM"
  }
]

----------
- experiment: Antioxidant activity in 1-alpha-phosphatidylcholine liposome assessed as inhibition of ascorbyl radical-induced lipid peroxidation by TBARS assay
- Assay type: functional
parameter: IC50

[
  {
    "line-notation": "O=c1c(O)c(-c2ccc(O)c(O)c2)oc2cc(O)cc(O)c12",
    "parameter": "IC50",
    "result": "80 µM"
  },
  {
    "line-notation": "C[C@@H]1O[C@@H](Oc2cc(O)c3c(=O)c(O[C@@H]4O[C@@H](C)[C@H](O)[C@@H](O)[C@H]4O)c(-c4ccc(O)cc4)oc3c2)[C@H](O)[C@H](O)[C@H]1O",
    "parameter": "IC50",
    "result": "112 µM"
  }
]

----------
Catalogue of compounds with associated IC50
- Test system: Liver microsomes
- experiment: Antioxidant activity in Wistar rat liver microsomes assessed as inhibition of ascorbyl radical-induced lipid peroxidation by TBARS assay
- Assay type: functional, Microsome
parameter: IC50 (µM)

[
  {
    "line-notation": "O=c1c(O)c(-c2ccc(O)c(O)c2)oc2cc(O)cc(O)c12",
    "parameter": "IC50",
    "unit-string": "µM",
    "result": 125
  },
  {
    "line-notation": "C[C@@H]1O[C@@H](Oc2cc(O)c3c(=O)c(O[C@@H]4O[C@@H](C)[C@H](O)[C@@H](O)[C@H]4O)c(-c4ccc(O)cc4)oc3c2)[C@H](O)[C@H](O)[C@H]1O",
    "parameter": "IC50",
    "unit-string": "µM",
    "result": 320
  }
]

Origin of the recorded values: ChEMBL document CHEMBL1151204
